Each recorded value in this set is attributed to the supplement of paper PMC9170038.

System: MS2 coat protein
Experiment: apparent KD of MS2 coat protein; designed switch direction (-1 OFF switch, 1 ON switch): -1; higher = weaker reporter binding
Conditions: Eterna round: R95; input ligand: none
Give apparent KD of MS2 coat protein for every item shown.
Reply with just the number (in nM).

Lab note: measured apparent KD of MS2 coat protein of AGUAACUAUCACGAAAGUGAUAGUUACACAAGCAGUGAAACAUGAGGAUCACCCAUGUCCUCAUUUGCUCGUCUUAU [Sensor 3 - 25] (puzzle: Sensor v3, turn-off variant 2) was 52.2

Measured apparent KD of MS2 coat protein, AGUUGGCGAGGAUAUACAUGAGGAUCACCCAUGUGAGAGAUACUAGUGAGGUCGAUUGGUAGAAGGCGCUGACG [Mat - Exclusion 3 - Mod of JL D79] (puzzle: Exclusion 3) : 151

Record UCAUGGUAGCAGGAUAUGCUUGUUUAAUUUUUUGCAGAAGGGCUAACAUGAGGAUCACCCAUGUGAGAGGUCUA [JR_E6_Sub065] (puzzle: Exclusion 6) . Reported apparent KD of MS2 coat protein: 144

Lookup result for CUGAGGUAGCGGUCCUAUGACAUGAGGAUCACCCAUGUACCUUGCUUUGAGCAUUUUGCUCGUCUUAUGAUUCUCGG [Mat - Sensor v3 - turn-off var 1 - JL Mod - D39] (puzzle: Sensor v3, turn-off variant 1) ; measured apparent KD of MS2 coat protein: 427

apparent KD of MS2 coat protein reported for this sequence GUGUAGCUAGGAUAUACAUGAGGAUCACCCAUGUGAAUAAGAUAGAAUAAGAUAAAGUGUAGAAGGAGUAGUGU [Excluse me!!! 15 - Jieux - Exclusion 3] (puzzle: Exclusion 3) : 18.7

# sequence AGAUGGCGAGGAUAUACAUGAGGAUCACCCAUGUGAGAAGAGAAAGUGAGGAAGAAAAGUAGAAGGCGCUGUCA [Mat - Exclusion 3 - Mod of Salish D21] (puzzle: Exclusion 3) ; its apparent KD of MS2 coat protein = 57

Entry ACAAGCUUUUUGUUCGUCUUAUACACUCCUAAUAAGACAACAUGAGGAUCACCCAUGUAACAAACAAGAACUCAUGU [Sesor Array 6 - Jieux - Sensor v3, turn-off variant 2] (puzzle: Sensor v3, turn-off variant 2) , apparent KD of MS2 coat protein reported as 72.5

CAGAAACAUGAGGAUCACCCAUGUGAGGAUAUGAAAAAGAAAAGAAAAGAAAGAAGAAUCAGAAGGCACAAAGA [salish99-ex1_r3_085] (puzzle: Exclusion 1) has a reported apparent KD of MS2 coat protein of 31.8

Form: sequence = GGCCCUAAGGUCAGAUCCACAAGCUUUUUGCUCGUUUUAACAUGAGGAUCACCCAUGUCUAGUGGAUCUGAUCCUCU [Sensor v3, turn-off variant 2 (MOD of Indiso v.4)] (puzzle: Sensor v3, turn-off variant 2) ; apparent KD of MS2 coat protein = 21.6

Entry GUUUGCGCAGGAUAUACAUGAGGAUCACCCAUGUGAGAGAAAUAAGUGAGGAAGAAAAGUAGAAGGGCGUGACG [Mat - Exclusion 3 - Mod of Salish D71] (puzzle: Exclusion 3) ; apparent KD of MS2 coat protein = 42.8

# apparent KD of MS2 coat protein of ACAAGCUUUUUGCUCGUCUUGUAGAAACGUGAGAGCGAGACAUGAGGAUCACCCAUGUAAAGGCAGUAGGUGGAGAU [JR_SV3TOV2_Sub026] (puzzle: Sensor v3, turn-off variant 2) = 58.2

Measured apparent KD of MS2 coat protein, AAAACACAUGAGGAUCACCCAUGUGAGGAUAUGUUAAUUUUAAUGAAAAUUAAAAUUAACAGAAGGCACAGAAA [JR_Exclusion1_Sub024] (puzzle: Exclusion 1) : 54.2
